system: 186277-243-T-J2-PDC complex spheroid viability; test: Anticancer human tumor 186277-243-T-J2-PDC patient-derived colon adenocarcinoma cell line growth inhibition [POLQ]; conditions: second compound 3.16 µM; first compound 3.16 µM; active means viability on the fitted dose curve at most 10% of control; inactive means the rest
Labels: active, inactive

molecule="COc1cc(C2c3cc4c(cc3C(OC3OC5COC(C)OC5C(O)C3O)C3COC(=O)C23)OCO4)cc(OC)c1O (stereo unspecified) + Nc1ccc(C#CCN(C(=O)Cc2ncc(C(F)(F)F)cc2C(F)(F)F)c2ccc(F)cc2)nn1" label_value=inactive
molecule="COc1ccc([C@@H](O)c2cc(-c3ncnc4cc(N5CCOCC5)ccc34)c(F)cc2Cl)nn1 + Cc1cccc(N(C)C(=O)C2C(O)CCN2c2nc(C)cc(C(F)(F)F)c2C#N)c1" label_value=inactive
molecule="COc1cc2cc(C(=O)CCC(=O)O)sc2cc1OC + Cc1cccc(N(C)C(=O)C2C(O)CCN2c2nc(C)cc(C(F)(F)F)c2C#N)c1" label_value=inactive
molecule="CC1COCCN1c1cc(C2(O)CC3CCC(C2)O3)c2cnn(-c3ccn[nH]3)c2n1 (stereo unspecified) + Nc1ccc(C#CCN(C(=O)Cc2ncc(C(F)(F)F)cc2C(F)(F)F)c2ccc(F)cc2)nn1" label_value=active
molecule="CC1COCCN1c1cc(-c2ccnn2C)c2ccnc(-c3ccn[nH]3)c2n1 (stereo unspecified) + Cc1cccc(N(C)C(=O)C2C(O)CCN2c2nc(C)cc(C(F)(F)F)c2C#N)c1" label_value=active
molecule="COc1cccc2c1C(=O)c1c(O)c3c(c(O)c1C2=O)CC(O)(C(=O)CO)CC3OC1CC(N)C(O)C(C)O1 (stereo unspecified) + Nc1ccc(C#CCN(C(=O)Cc2ncc(C(F)(F)F)cc2C(F)(F)F)c2ccc(F)cc2)nn1" label_value=active
molecule="CC1COCCN1c1cc(C2(O)CC3CCC(C2)O3)c2cnn(-c3ccn[nH]3)c2n1 (stereo unspecified) + Cc1cccc(N(C)C(=O)C2C(O)CCN2c2nc(C)cc(C(F)(F)F)c2C#N)c1" label_value=active
molecule="CC1COCCN1c1cc(C2(O)CC3CCC(C2)O3)c2cnn(-c3ccn[nH]3)c2n1 (stereo unspecified) + COC1C(OC(N)=O)C(O)C(Oc2ccc3c(O)c(NC(=O)c4ccc(O)c(CC=C(C)C)c4)c(=O)oc3c2C)OC1(C)C" label_value=active
molecule="CNCc1ccc(-c2[nH]c3cc(F)cc4c3c2CCNC4=O)cc1 + Cc1cccc(N(C)C(=O)C2C(O)CCN2c2nc(C)cc(C(F)(F)F)c2C#N)c1" label_value=inactive
molecule="O=c1[nH]cc(F)c(=O)[nH]1 + Nc1ccc(C#CCN(C(=O)Cc2ncc(C(F)(F)F)cc2C(F)(F)F)c2ccc(F)cc2)nn1" label_value=inactive
molecule="CC1COCCN1c1cc(C2(S(C)(=N)=O)CC2)nc(-c2ccnc3[nH]ccc23)n1 (stereo unspecified) + Nc1ccc(C#CCN(C(=O)Cc2ncc(C(F)(F)F)cc2C(F)(F)F)c2ccc(F)cc2)nn1" label_value=inactive

###

system: 186277-243-T-J2-PDC complex spheroid viability; assay: Anticancer human tumor 186277-243-T-J2-PDC cell line growth inhibition [POLQ]; settings: second compound 0.1 µM; first compound 0.316 µM; hits give low values;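 further: spheroids exposed to compounds for seven days; 100% = DMSO vehicle control viability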
Property: viability, T/C

compound="CCc1c2c(nc3ccc(O)cc13)-c1cc3c(c(=O)n1C2)COC(=O)[C@]3(O)CC + Cc1cccc(N(C)C(=O)C2C(O)CCN2c2nc(C)cc(C(F)(F)F)c2C#N)c1" property="viability, T/C" result=9.86%
compound="O=c1[nH]cc(F)c(=O)[nH]1 + COC1C(OC(N)=O)C(O)C(Oc2ccc3c(O)c(NC(=O)c4ccc(O)c(CC=C(C)C)c4)c(=O)oc3c2C)OC1(C)C" property="viability, T/C" result=104%
compound="O=C(c1cc(Cc2n[nH]c(=O)c3ccccc23)ccc1F)N1CCN(C(=O)C2CC2)CC1 + Nc1ccc(C#CCN(C(=O)Cc2ncc(C(F)(F)F)cc2C(F)(F)F)c2ccc(F)cc2)nn1" property="viability, T/C" result=111%
compound="CC1COCCN1c1cc(C2(S(C)(=N)=O)CC2)nc(-c2ccnc3[nH]ccc23)n1 (centres undefined) + Nc1ccc(C#CCN(C(=O)Cc2ncc(C(F)(F)F)cc2C(F)(F)F)c2ccc(F)cc2)nn1" property="viability, T/C" result=93%
compound="CCc1cc2c(N3CCc4c(cc(Cn5ccnc5)cc4-c4cn(C)nc4C(F)(F)F)C3=O)cc(C)nc2c(OC)n1 + Cc1cccc(N(C)C(=O)C2C(O)CCN2c2nc(C)cc(C(F)(F)F)c2C#N)c1" property="viability, T/C" result=96.8%
compound="COc1ccc([C@@H](O)c2cc(-c3ncnc4cc(N5CCOCC5)ccc34)c(F)cc2Cl)nn1 + COC1C(OC(N)=O)C(O)C(Oc2ccc3c(O)c(NC(=O)c4ccc(O)c(CC=C(C)C)c4)c(=O)oc3c2C)OC1(C)C" property="viability, T/C" result=106%
compound="CCc1c2c(nc3ccc(O)cc13)-c1cc3c(c(=O)n1C2)COC(=O)[C@]3(O)CC + Nc1ccc(C#CCN(C(=O)Cc2ncc(C(F)(F)F)cc2C(F)(F)F)c2ccc(F)cc2)nn1" property="viability, T/C" result=20.8%
compound="CC1COCCN1c1cc(-c2ccnn2C)c2ccnc(-c3ccn[nH]3)c2n1 (centres undefined) + Cc1cccc(N(C)C(=O)C2C(O)CCN2c2nc(C)cc(C(F)(F)F)c2C#N)c1" property="viability, T/C" result=5.72%
compound="O=C(Nc1ccc(O)c(NS(=O)(=O)c2ccc(F)cc2)c1)c1ccc(-c2ccccc2)cc1 + Cc1cccc(N(C)C(=O)C2C(O)CCN2c2nc(C)cc(C(F)(F)F)c2C#N)c1" property="viability, T/C" result=104%
